Cited source for all entries: paper PMC5180085

Target or test system: Ku70;Ku80 (human;human, UniProt P12956;P13010 1-609;1-732, |)
Sequence (P12956 whole entry, chain 1 of 2): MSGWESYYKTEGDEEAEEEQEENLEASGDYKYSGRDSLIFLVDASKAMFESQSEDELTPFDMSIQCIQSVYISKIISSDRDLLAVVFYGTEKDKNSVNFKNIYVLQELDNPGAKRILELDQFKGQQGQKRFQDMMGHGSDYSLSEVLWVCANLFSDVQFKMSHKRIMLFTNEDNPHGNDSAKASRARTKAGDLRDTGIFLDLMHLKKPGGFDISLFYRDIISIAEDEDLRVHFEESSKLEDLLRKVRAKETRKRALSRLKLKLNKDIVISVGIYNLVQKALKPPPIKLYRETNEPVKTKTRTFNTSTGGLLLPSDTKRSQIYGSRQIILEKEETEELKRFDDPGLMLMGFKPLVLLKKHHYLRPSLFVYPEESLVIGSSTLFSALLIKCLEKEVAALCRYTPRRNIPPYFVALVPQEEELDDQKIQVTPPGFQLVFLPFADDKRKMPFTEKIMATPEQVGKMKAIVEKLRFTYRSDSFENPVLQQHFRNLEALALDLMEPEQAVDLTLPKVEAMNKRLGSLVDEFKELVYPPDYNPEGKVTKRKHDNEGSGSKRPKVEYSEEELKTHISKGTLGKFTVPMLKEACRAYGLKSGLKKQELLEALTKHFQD
Sequence (P13010 whole entry, chain 2 of 2): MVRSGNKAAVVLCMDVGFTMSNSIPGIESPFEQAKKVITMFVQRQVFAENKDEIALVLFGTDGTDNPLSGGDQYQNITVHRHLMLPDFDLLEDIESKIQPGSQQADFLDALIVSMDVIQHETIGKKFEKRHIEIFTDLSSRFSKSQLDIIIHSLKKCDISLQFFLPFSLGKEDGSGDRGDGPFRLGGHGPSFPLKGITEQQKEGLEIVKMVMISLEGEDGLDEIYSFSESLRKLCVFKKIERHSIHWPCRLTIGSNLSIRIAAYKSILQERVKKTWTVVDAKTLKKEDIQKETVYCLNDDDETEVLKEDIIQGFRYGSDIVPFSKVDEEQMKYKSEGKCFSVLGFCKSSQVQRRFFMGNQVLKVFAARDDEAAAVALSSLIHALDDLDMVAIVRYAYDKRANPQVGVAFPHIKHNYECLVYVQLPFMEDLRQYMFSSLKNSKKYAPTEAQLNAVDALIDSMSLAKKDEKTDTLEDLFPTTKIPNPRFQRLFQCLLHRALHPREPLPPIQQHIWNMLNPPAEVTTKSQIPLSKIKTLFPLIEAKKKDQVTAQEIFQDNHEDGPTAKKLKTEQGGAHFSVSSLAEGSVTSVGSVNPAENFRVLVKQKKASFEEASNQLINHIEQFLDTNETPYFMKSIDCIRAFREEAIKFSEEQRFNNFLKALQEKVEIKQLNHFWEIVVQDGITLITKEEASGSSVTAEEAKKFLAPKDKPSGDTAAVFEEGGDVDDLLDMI
Assay procedure: mwPIFE; mwPIFE, room temp, 30 min: BamHI 10 mM Tris-HCl pH 8, 100 mM KCl, 0.02% Triton X-100, 0.1 mg/ml BSA, 5 mM EDTA/MgCl2/CaCl2; Ku 35 mM Tris-Cl pH 7.9, 5.5% glycerol, 150 mM KCl, 1 mM EDTA, 0.1 mM DTT, 1.5 mM imidazole; XPF/ERCC1 10 mM Tris-Cl pH 8, 10 mM NaCl. FA: 10 mM Tris-HCl pH 8, 10 mM NaCl, 10% glycerol, 1 mM TCEP, 50 nM DNA, 25 C
Experimental parameters: protein: recombinant;recombinant; tags: ;; copies: 1;1; label: 5' biotin strand 1; blunt
Listed here are binders together with their documented binding signal.

{"columns": ["Binder", "Measure name", "Recorded result"],
 "data": [
  ["Btn_12_f/Cy3_12_r (dsDNA) DNA 1: TAGATAGAGCCA DNA 2: TGGCTCTATCTA", "binding signal", "20 % PIFE"],
  ["Btn_13_f/Cy3_13_r (dsDNA) DNA 1: CTAGATAGAGCCA DNA 2: TGGCTCTATCTAG", "binding signal", "~50 % PIFE"],
  ["Btn_14_f/Cy3_14_r (dsDNA) DNA 1: CCTAGATAGAGCCA DNA 2: TGGCTCTATCTAGG", "binding signal", "~50 % PIFE"]
]}

Find the measured binding signal of Btn_11_f/Cy3_11_r (dsDNA) DNA 1: AGATAGAGCCA DNA 2: TGGCTCTATCT and report it. 7 % PIFE
